assay: solvent given as SMILES; settings: in ClCCl
assay.endpoint: absorption maximum (nm)

CN(C)c1ccc(/C=C/c2nc3ccc(Br)cc3nc2-c2ccccc2)cc1 453
CCCCCCCCC1(CCCCCCCC)c2cc(C=O)ccc2-c2ccc(/C=C/c3ccc(N(c4ccccc4)c4ccccc4)cc3)cc21 411
CC(C)(C)c1ccc(-c2c3c(c(-c4ccc(C(C)(C)C)cc4)c4cc5ccccc5cc24)Cc2c(c(-c4ccc(C(C)(C)C)cc4)c4cc5ccccc5cc4c2-c2ccc(C(C)(C)C)cc2)C3)cc1 393
CCCCn1c2ccc(C#N)cc2c2cc(C#N)ccc21 349
CCN(CC)c1ccc2c(c1)oc(=O)c1c(=O)oc3c(C)c4oc(=O)c5c(=O)oc6cc(N(CC)CC)ccc6c5c4cc3c12 458
COC(=O)C1=C(C(=O)OC)C2(c3ccccc3-c3ccccc32)[C@@H](c2ccc([N+](=O)[O-])cc2)C=C2c3cc(OC)c(OC)cc3CCN21 310
CC(C)(C)NC(=O)c1ccc(-c2cc3ccccc3s2)c2ccc3c4ccccc4c4ccccc4c3c12 350
O=Cc1cc(C=O)c2ccc3c(N4CCCCC4)cc(N4CCCCC4)c4ccc1c2c43 534

Every entry's value here was drawn from the Deep4Chem optical property database.
